System: LXRb homodimer (NR concentration 270 nM)
METHOD_SUMMARY: PBM binding z-score (relative to random genomic background probes); higher = stronger binding; sequences stand for … in GC…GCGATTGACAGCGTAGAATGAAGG
# label = criterion met if PBM binding z-score >= -0.1 else criterion not met

Confirm if PBM binding z-score reported for the sequence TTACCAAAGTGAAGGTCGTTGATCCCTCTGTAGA is -0.1 or above.
criterion not met

Confirm if PBM binding z-score reported for the sequence TCTTGTAGATCAATAGAGGTTAACAAAGTGCGCT is -0.1 or above.
criterion met

Confirm if PBM binding z-score reported for the sequence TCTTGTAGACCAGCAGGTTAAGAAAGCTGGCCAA is -0.1 or above.
criterion not met

Confirm if PBM binding z-score reported for the sequence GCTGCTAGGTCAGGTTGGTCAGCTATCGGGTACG is -0.1 or above.
criterion not met

Confirm if PBM binding z-score reported for the sequence GATACAGGGTCAAGGCCATAGTACGCGTATTGAT is -0.1 or above.
criterion met

* * *

System: PXR homodimer (NR concentration 270 nM)
METHOD_SUMMARY: PBM binding z-score (relative to random genomic background probes); higher = stronger binding; sequences stand for … in GC…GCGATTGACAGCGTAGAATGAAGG
MEASUREMENT_NAME: PBM binding z-score
Answer with a number only.

State, in one line, measured PBM binding z-score of TCTTGTAGATCAACAGGAGGTTAAGACAGATCGA
-0.273

State, in one line, measured PBM binding z-score of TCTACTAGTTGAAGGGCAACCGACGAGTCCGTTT
0.108

State, in one line, measured PBM binding z-score of TCGAGTAGGTTACCAATGGGGCGTTCAGCTTTCT
-0.801

State, in one line, measured PBM binding z-score of AGAACGAGGGCACGCTGAGTTGTTAGCAGAGTAG
-0.39

* * *

System: RXRa DBDmut IVT, anti-RXR (DBD mutation: RXRa K156A/R161A, NR concentration 90 nM)
METHOD_SUMMARY: PBM binding z-score (relative to random genomic background probes); higher = stronger binding; sequences stand for … in GC…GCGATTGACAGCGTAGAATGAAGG
Kindly state PBM binding z-score for each of the entries shown.
Answer with a number only.

State, in one line, measured PBM binding z-score of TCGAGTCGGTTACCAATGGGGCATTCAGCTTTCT
0.329

State, in one line, measured PBM binding z-score of AGTTAAAGTTCATCTAGGTAACGTAAGATATGCT
4.63

State, in one line, measured PBM binding z-score of CCTATTAGTTGACCAGAAGGGCAACCGAAGCTCG
0.633

State, in one line, measured PBM binding z-score of CTCGAAAGGCCGGTTGAGGTGAGTATACGGATAA
-0.239

State, in one line, measured PBM binding z-score of CCTACTGTGCCATCAGGTCATTGATATCAACGTT
1.69

State, in one line, measured PBM binding z-score of CAAACTAAGTCACAGAGGTCAAAGTCCGTGCGTA
2.26

State, in one line, measured PBM binding z-score of TAGCCTAGGTTATTCAGGGGCCAGTATAGAAAGC
-0.074

State, in one line, measured PBM binding z-score of AGTCGAAGTTCACTAGGTAACGTAAGATTCAGCT
3.45

State, in one line, measured PBM binding z-score of GGAACGAGGGCAAAGTTTATAGCATCTGTCGACG
2.61

State, in one line, measured PBM binding z-score of ATCTATAGGTAAAGATAGTTCAGTGAATGCAAAT
0.0561

State, in one line, measured PBM binding z-score of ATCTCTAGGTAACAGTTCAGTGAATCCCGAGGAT
0.0711

* * *

Tested on: RXRa homodimer (NR concentration 180 nM)
METHOD_SUMMARY: PBM binding z-score (relative to random genomic background probes); higher = stronger binding; sequences stand for … in GC…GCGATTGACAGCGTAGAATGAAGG
# label = TRUE if PBM binding z-score >= 1 else FALSE

Confirm if PBM binding z-score reported for the sequence TTACCAATGTGAGCTGAGGTCGTTGATCCAACTC is 1 or above.
FALSE

Confirm if PBM binding z-score reported for the sequence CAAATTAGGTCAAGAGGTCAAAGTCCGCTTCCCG is 1 or above.
TRUE

Confirm if PBM binding z-score reported for the sequence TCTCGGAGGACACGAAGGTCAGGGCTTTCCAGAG is 1 or above.
TRUE

Confirm if PBM binding z-score reported for the sequence GCTGCTAGGTCAACTGATGGTCAGCTACAGCTCG is 1 or above.
TRUE

Confirm if PBM binding z-score reported for the sequence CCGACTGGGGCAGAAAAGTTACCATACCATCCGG is 1 or above.
FALSE

Confirm if PBM binding z-score reported for the sequence AGAATGAGGTTACCAAAGATCAGGGATACGCTTG is 1 or above.
TRUE

Confirm if PBM binding z-score reported for the sequence AATACAGGGTCATCGTAGGCCAGAGTGCGCACAG is 1 or above.
TRUE

Confirm if PBM binding z-score reported for the sequence AGAATGAGGTTACCAAAGATCAGGGAGACGCTTG is 1 or above.
TRUE

Confirm if PBM binding z-score reported for the sequence GCGAATGGGGCATCAGCAGGTTACCATAACTTAA is 1 or above.
FALSE

Confirm if PBM binding z-score reported for the sequence TTACCAAGGTGAAAGGTCGTTGTTGCACGCCTTG is 1 or above.
TRUE

Confirm if PBM binding z-score reported for the sequence TCTTGTAGATCAATAGAGGTTAAGAATGTGCGCT is 1 or above.
TRUE

Confirm if PBM binding z-score reported for the sequence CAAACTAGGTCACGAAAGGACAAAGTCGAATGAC is 1 or above.
TRUE

Confirm if PBM binding z-score reported for the sequence CTCGAAAGGTCGTGCTCAGGTGAGTCTACCAAAC is 1 or above.
TRUE

Confirm if PBM binding z-score reported for the sequence GTACCAAGGTGAATAGGTCTTTGATGAGTAGGCG is 1 or above.
FALSE

Confirm if PBM binding z-score reported for the sequence TCTGCTAGGTCAGTTGGTGAGCTAACGAGCTGCC is 1 or above.
FALSE

Confirm if PBM binding z-score reported for the sequence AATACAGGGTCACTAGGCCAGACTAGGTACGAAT is 1 or above.
TRUE

Confirm if PBM binding z-score reported for the sequence TCGAGTAGGATACCAATGGGGCATTCAGCTTTCT is 1 or above.
FALSE

Confirm if PBM binding z-score reported for the sequence CGGACTGGGGCAGAAAGGTTACCATACCATCCGG is 1 or above.
TRUE

Confirm if PBM binding z-score reported for the sequence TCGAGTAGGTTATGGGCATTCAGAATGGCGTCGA is 1 or above.
FALSE

Confirm if PBM binding z-score reported for the sequence ATATGTAGGTTATCGGGTCCTTCAGTTTGCGCAT is 1 or above.
FALSE

Confirm if PBM binding z-score reported for the sequence TCATATTGGTAAAAGGTGAAAGTCGGTGTGGTAA is 1 or above.
TRUE

Confirm if PBM binding z-score reported for the sequence CCTAGCAGGCCAATCTCGGTCACTCAAGGCTTGA is 1 or above.
FALSE

Confirm if PBM binding z-score reported for the sequence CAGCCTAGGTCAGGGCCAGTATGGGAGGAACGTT is 1 or above.
TRUE

Confirm if PBM binding z-score reported for the sequence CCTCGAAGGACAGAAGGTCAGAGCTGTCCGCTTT is 1 or above.
TRUE

Confirm if PBM binding z-score reported for the sequence ATCTCTAGGTACAGATAGTTCAGTGAATGCAAAT is 1 or above.
FALSE

Confirm if PBM binding z-score reported for the sequence TCATATAGTTAAAGGTGAAAGTCGAACGATATGA is 1 or above.
TRUE

Confirm if PBM binding z-score reported for the sequence TAGCCTAGGTGATGGGCCAGTATACCACGCGAAC is 1 or above.
FALSE

Confirm if PBM binding z-score reported for the sequence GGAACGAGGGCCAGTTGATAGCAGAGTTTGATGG is 1 or above.
FALSE

Confirm if PBM binding z-score reported for the sequence CCTAGCAGGCCCATCTGGGTCACTCAAGGCTTGA is 1 or above.
FALSE

Confirm if PBM binding z-score reported for the sequence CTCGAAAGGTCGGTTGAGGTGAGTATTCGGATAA is 1 or above.
TRUE

Confirm if PBM binding z-score reported for the sequence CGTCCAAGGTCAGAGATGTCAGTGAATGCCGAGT is 1 or above.
TRUE

Confirm if PBM binding z-score reported for the sequence TCAGACAGGTGAAGGAAACTCAGGTACGCAGTCG is 1 or above.
FALSE

Confirm if PBM binding z-score reported for the sequence CCGATTGGGGCAAAGGTTACCATACTCAGTACGA is 1 or above.
TRUE

Confirm if PBM binding z-score reported for the sequence TCATATAGGTAATTCAGGTGAAAGTCGGCATCTA is 1 or above.
FALSE

Confirm if PBM binding z-score reported for the sequence ATCTCTAGGTAATACTCAGTTCAGTGAAGAACGC is 1 or above.
FALSE

Confirm if PBM binding z-score reported for the sequence TCATATAGGTATATGCTAGGTGAAAGTCCGATCT is 1 or above.
FALSE

Confirm if PBM binding z-score reported for the sequence CCTACTGGGCCAAGGGTCATTGATTCCAATGCTC is 1 or above.
TRUE

Confirm if PBM binding z-score reported for the sequence TCTTGTAGAACAAGCAGGTTAAGAAAGCCTGAGT is 1 or above.
FALSE

Confirm if PBM binding z-score reported for the sequence TCATATAGGTAAACATGTGAAAGTCCGTAAGTTA is 1 or above.
TRUE

Confirm if PBM binding z-score reported for the sequence AGAACGAGGGCACGCTGAGTGGATAGCAGAGTAG is 1 or above.
TRUE

Confirm if PBM binding z-score reported for the sequence AGAATGAGGTTATTAGGATCAGGGAATTGCGGTC is 1 or above.
TRUE

Confirm if PBM binding z-score reported for the sequence ACTAGCAGGCCAAGTTTGGGTCACTCATACAAAG is 1 or above.
FALSE

Confirm if PBM binding z-score reported for the sequence CAAACTAGGTCACGAAGGGTCAAAGTCGAATGAC is 1 or above.
TRUE

Confirm if PBM binding z-score reported for the sequence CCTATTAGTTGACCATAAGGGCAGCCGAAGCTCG is 1 or above.
FALSE

Confirm if PBM binding z-score reported for the sequence TTACCAGGGTGAAAGGTCGTTGATGCACGCCTTG is 1 or above.
TRUE

Confirm if PBM binding z-score reported for the sequence TCTAATAGTTGAAGGGCAACCGACGAGTCCGTTT is 1 or above.
FALSE
